testedSystem: T1, WD40 domain of CstF-50 (human, UniProt Q05048 80-431)
T1 sequence: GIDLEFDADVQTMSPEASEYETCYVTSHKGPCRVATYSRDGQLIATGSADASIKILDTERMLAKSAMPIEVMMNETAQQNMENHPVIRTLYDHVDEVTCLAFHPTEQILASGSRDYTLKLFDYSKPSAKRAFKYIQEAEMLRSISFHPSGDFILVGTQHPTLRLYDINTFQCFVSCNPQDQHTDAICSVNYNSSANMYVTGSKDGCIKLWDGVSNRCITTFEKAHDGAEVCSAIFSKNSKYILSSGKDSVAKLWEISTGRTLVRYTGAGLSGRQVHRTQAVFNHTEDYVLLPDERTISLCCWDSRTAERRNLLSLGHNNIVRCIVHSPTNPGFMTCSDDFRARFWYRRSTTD
protocolDescription: ITC
experimentalReadout: Kd

Would you kindly share the measured Kd for YPKPDTQQMIPFQPRHLAPP (peptide, UniProt Q12996 581-600, looked up) [CstF-77 peptide (residues 581–600)] ?
~200 nM
